- tested_system: FGFR
- Construct: fused on or other part: GST tag
- protocol_text: in vitro FGFR kinase inhibition HTRF assay
- experimental_context: recombinant GST-tagged FGFR, 10 μM ATP, 37° C. 30 minutes
pIC50: −log10 of the molar value.
observed_property: pIC50

molecule	pIC50
CN1N=C(c2c(Cl)cccc2Cl)Oc2cnc(Nc3ccc(F)cc3)nc21 [compound 6]	6.62

[A] CN1N=C(c2c(Cl)cccc2Cl)Oc2cnc(Nc3ccccc3)nc21 [compound 5]
[B] CN1N=C(c2c(Cl)cccc2Cl)Oc2cnc(Nc3cccc(Cl)c3)nc21 [compound 7]
// query Of the two listed items, which has the higher pIC50? First: A Second: B Kindly state the label of the option you pick.
// result A
(A: 6.74, B: 6.49)

---

- tested_system: p38 MAP kinase (Homo sapiens)
- Sequence (Q16539 whole entry): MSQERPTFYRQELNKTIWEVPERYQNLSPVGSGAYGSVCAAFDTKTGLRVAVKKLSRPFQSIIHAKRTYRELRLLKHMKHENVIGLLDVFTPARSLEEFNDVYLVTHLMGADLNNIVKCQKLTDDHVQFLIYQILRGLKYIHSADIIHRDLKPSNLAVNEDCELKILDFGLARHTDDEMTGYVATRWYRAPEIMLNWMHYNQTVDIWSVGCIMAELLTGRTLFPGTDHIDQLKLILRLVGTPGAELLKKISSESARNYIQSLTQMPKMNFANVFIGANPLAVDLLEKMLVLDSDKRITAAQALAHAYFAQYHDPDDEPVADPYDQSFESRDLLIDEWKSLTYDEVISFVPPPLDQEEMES
- protocol_text: in vitro p38 MAP kinase inhibition assay (transfer of γ-33P from ATP to Myelin Basic Protein)
- experimental_context: phosphorylated recombinant p38 MAP kinase, MBP substrate, γ-33P-ATP; read-out: p-38 inhibitory activity, IC50
observed_property: IC50 (µM)

[1] CN1N=C(c2ccccc2Cl)Oc2cnc(NC3CCOCC3)nc21
[2] CN1N=C(c2ccccc2F)Oc2cnc(NC3CCOCC3)nc21
// query Of the two listed items, which has the higher IC50? First: 1 Second: 2 Kindly state the label of the option you pick.
// result 2
(2: 2.2 µM, 1: 0.189 µM)
